System: Escherichia coli
measurement-description: Antibacterial activity against Escherichia coli ATCC 25922 (CO-ADD:GN_001); MIC in CAMBH media using NBS plates, by Resazurin F(560/590)
Type: functional
measurement-setup: Concentration 20 uM, ASSAY_TEST Inhibition of Bacterial Growth, detection method Resazurin, Fluorescence (ex560/em590), MEDIA CAMHB, plate type 384well, CORNING #3640, time 18 hr
metric: Inhibition (%)
Numbers only here, please. The scale is %.

Some compounds with recorded Inhibition:
O=[N+]([O-])c1cc(-c2cccnc2)[nH]n1: 2.34
COC1C(=O)CCC2(CO2)C1(O)C1(C)OC1CC=C(C)C (centres undefined): 14.59
O=C(c1ccccc1)C1C(c2ccccc2)C1[N+](=O)[O-] (centres undefined): -7.09
CCOc1ccc2sc(NS(=O)(=O)c3ccc(N)cc3)nc2c1: 7.14
C=CCOc1ccnc(-c2ccccc2)n1: 5

The compound listed as C(=N\n1cnnc1)/c1ccc2c(c1)CCC2 has a reported Inhibition of 2.79

The compound listed as O=C1OCC/C1=C\NCCCCCCCCN/C=C1\CCOC1=O has a reported Inhibition of 3.41

The compound listed as O=C(O)/C(Cc1c[nH]nn1)=N\O has a reported Inhibition of 6.44

The compound listed as O=C(O)Cc1ccc(/N=N/c2c(O)c(C(=O)O)cc3ccccc23)cc1 has a reported Inhibition of 1.22

The compound listed as CCCc1nc(NC(=O)c2ccccc2)nc(NC(=O)c2ccccc2)n1 has a reported Inhibition of 8.74
